- system_tested: GR from rat thymus (thymus cytosol) (Rattus norvegicus)
- Sequence (P06536 1-795): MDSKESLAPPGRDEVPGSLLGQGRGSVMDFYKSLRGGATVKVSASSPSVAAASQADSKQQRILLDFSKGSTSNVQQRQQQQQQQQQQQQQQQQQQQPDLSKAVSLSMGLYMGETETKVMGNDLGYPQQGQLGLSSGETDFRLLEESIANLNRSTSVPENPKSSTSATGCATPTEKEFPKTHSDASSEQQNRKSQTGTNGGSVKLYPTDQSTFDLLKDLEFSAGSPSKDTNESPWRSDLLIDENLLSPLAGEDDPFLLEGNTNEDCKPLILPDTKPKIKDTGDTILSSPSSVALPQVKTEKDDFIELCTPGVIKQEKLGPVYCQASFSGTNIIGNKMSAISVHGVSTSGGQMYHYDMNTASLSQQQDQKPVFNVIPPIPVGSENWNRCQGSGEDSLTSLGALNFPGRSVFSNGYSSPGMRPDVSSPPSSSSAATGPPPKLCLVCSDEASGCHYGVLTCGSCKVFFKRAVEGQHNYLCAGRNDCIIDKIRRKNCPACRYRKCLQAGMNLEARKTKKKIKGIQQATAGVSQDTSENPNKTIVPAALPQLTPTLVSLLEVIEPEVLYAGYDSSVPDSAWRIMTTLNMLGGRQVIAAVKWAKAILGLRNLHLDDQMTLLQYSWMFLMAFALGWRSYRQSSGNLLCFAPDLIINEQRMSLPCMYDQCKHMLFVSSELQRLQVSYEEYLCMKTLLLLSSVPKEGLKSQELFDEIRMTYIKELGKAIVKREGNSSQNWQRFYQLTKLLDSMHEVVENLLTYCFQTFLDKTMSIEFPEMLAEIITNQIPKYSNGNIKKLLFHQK
assay_endpoint: Kd
Express your answer as a number followed by its unit.

Challenge: Find the recorded Kd belonging to C[C@]12CC[C@H]3[C@@H](C[C@H]4OC[C@@]35CCC(=O)C=C45)[C@@H]1CC[C@@H]2C(=O)CO [21OH-6OP, 21-hydroxy-6,19-oxidoprogesterone] and report it.
Response given: 0.125 µM

###

- system_tested: UniProtKB P22199
- Sequence (P22199 whole entry): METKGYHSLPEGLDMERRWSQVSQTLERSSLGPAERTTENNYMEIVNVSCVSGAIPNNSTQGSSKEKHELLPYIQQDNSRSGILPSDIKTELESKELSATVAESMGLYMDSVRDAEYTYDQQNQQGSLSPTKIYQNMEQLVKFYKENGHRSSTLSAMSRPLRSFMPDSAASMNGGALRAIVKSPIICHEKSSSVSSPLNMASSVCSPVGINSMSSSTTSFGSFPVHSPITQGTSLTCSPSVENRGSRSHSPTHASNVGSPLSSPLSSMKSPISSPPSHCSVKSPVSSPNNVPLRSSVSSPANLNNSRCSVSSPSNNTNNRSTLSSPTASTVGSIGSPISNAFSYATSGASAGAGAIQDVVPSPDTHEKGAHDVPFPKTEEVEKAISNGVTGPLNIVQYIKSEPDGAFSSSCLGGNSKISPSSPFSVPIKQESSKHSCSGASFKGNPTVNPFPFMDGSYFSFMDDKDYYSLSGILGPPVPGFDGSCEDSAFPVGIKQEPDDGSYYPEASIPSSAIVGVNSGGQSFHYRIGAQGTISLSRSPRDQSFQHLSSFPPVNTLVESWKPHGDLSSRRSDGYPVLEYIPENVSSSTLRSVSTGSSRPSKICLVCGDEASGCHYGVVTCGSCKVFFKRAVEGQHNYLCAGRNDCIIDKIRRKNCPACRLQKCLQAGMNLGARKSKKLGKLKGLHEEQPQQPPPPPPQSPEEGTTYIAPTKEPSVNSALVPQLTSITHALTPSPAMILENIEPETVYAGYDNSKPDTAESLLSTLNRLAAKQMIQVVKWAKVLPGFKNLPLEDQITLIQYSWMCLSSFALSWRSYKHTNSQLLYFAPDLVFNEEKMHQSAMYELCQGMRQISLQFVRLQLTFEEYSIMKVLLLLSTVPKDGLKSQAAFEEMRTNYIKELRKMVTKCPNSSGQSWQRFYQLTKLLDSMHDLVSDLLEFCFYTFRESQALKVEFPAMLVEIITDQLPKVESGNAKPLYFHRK
assay_endpoint: Kd (nM)
Report as a plain number; the unit nM is understood.

Challenge: Find the recorded Kd belonging to COC(=O)[C@@H]1CC2=CC(=O)CC[C@]2(C)[C@H]2CC[C@@]3(C)[C@@H]([C@@H]4C[C@@H]4[C@@]34CCC(=O)O4)[C@H]12 and report it.
Response given: 0.42

###

Target protein (sequence): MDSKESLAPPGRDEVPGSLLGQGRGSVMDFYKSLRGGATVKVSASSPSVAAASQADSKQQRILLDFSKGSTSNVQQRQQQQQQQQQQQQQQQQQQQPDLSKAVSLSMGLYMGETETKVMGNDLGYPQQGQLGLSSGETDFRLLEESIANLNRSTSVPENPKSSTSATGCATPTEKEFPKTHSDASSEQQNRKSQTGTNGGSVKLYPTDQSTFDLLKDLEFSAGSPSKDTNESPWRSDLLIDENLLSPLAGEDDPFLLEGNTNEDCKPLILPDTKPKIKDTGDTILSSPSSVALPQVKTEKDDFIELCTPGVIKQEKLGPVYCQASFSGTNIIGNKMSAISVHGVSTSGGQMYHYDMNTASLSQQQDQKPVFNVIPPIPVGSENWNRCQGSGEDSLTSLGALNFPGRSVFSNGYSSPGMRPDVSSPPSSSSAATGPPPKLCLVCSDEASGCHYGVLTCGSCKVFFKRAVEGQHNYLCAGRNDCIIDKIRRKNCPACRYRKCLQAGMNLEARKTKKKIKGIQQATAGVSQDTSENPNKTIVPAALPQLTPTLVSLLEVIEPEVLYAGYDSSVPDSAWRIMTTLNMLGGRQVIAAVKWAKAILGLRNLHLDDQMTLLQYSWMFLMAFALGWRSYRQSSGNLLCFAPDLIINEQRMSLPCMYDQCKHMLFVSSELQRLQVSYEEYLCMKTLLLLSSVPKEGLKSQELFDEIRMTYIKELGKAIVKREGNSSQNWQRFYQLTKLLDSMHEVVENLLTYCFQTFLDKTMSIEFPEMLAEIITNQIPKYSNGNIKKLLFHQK
assay_endpoint: pKd
Please report pKd as the negative decimal logarithm of the molar concentration, giving only the number.

Challenge: Find the recorded pKd belonging to C[C@]12CCC(=O)C=C1CC[C@@H]1[C@@H]2[C@@H](O)C[C@]2(C=O)[C@@H](C(=O)CO)CC[C@@H]12 [(^3 H)-ALDO, Aldosterone] and report it.
Response given: 7.19
